Below, each of the compounds is paired with its reported melting point value.

CN1CCC[C@H]1c1cnccc1C(O)(c1ccccc1)c1ccccc1 ... 232 to 234 °C
Cc1sc(S(N)(=O)=O)cc1NC(=O)c1cnn2c(C(F)F)cc(-c3ccc(C(F)(F)F)cc3)nc12 ... 313 °C
CN(C(=O)c1cccc(F)c1[Si](C)(C)C)C(C)(C)C ... 32 to 35 °C
O=C(NNc1ccc(NC(=S)Nc2ccccc2)cc1)c1ccccc1 ... 149 to 151 °C
CC(=O)NC[C@H]1CN(c2ccc(C(=O)c3cnc4nc(C)cc(C)n34)cc2)C(=O)O1 ... 253 to 254 °C

Name the recorded melting point of the compound listed here: COc1ccc2c(c1)CCN(C=O)C2c1cc(Cl)nc(Cl)c1 (single isomer, unassigned; (-))
156 to 158 °C

Give recorded melting point. `CC(C)(C)OC(=O)N(CC#N)CCN(CC#N)C(=O)OC(C)(C)C`
112 to 113 °C

State its melting point for this compound: NC1CCN(c2nc3c(cc2F)c(=O)c(C(=O)O)cn3C2CC2)C1 (stereo not given)
266 to 267 °C

Please report the measured melting point for CC(C)(O)c1ccc(C(Cc2ccc(F)cc2)C(=O)Nc2nc3ccccc3o2)cc1 (stereo not given)
87 to 90 °C

Please report the measured melting point for CC(CCCc1cccnc1)NC(=O)C(O)c1ccccc1 (stereo not given)
144 to 146 °C

Output measured melting point for this item: `N#Cc1cc(-c2ccccc2Cl)c[nH]c1=O`
252 to 254 °C

Give me measured melting point, please, for this compound: Nc1ccc(C(O)C(CO)N2CCC(Cc3ccccc3)CC2)cc1 (stereo not given)
62 to 68 °C

Dear colleague, please send me the reported melting point for `Cc1cnc2ccc(-c3cccnc3)nn12` when you can.
173 to 175 °C

Look up and state reported melting point for `COc1ccc2c(c1)Oc1cscc1C(N1CCN(C)CC1)=N2`
188 to 189 °C

Specify melting point for Oc1ccc2c(c1)CCC(NCC(O)COc1cccc3ccccc13)C2 (stereo not given) and stop.
118 to 120 °C

Provide measured melting point value, entry: COc1ccc2c(c1OC)CCOC2CCl (stereo not given)
63 to 65 °C

Give the reported value of melting point for this record: `CC1(C)OC(=O)COC1=O`
82 to 83 °C

Output measured melting point for this item: `COC1=CC[C@H]2[C@@H]3CCc4cc(OC)ccc4[C@H]3CC[C@]12C`
90.5 to 93 °C

Complete the entry with melting point for `Cc1ccc2c(c1)OCc1nc(C(=O)O)cn1-2`
278 to 279 °C
